# Lookup of reported pIC50 keyed by entry
Biological target: PI3-kinase p110-alpha/p85-alpha (Homo sapiens, UniProt P42336)
Sequence (P27986 whole entry): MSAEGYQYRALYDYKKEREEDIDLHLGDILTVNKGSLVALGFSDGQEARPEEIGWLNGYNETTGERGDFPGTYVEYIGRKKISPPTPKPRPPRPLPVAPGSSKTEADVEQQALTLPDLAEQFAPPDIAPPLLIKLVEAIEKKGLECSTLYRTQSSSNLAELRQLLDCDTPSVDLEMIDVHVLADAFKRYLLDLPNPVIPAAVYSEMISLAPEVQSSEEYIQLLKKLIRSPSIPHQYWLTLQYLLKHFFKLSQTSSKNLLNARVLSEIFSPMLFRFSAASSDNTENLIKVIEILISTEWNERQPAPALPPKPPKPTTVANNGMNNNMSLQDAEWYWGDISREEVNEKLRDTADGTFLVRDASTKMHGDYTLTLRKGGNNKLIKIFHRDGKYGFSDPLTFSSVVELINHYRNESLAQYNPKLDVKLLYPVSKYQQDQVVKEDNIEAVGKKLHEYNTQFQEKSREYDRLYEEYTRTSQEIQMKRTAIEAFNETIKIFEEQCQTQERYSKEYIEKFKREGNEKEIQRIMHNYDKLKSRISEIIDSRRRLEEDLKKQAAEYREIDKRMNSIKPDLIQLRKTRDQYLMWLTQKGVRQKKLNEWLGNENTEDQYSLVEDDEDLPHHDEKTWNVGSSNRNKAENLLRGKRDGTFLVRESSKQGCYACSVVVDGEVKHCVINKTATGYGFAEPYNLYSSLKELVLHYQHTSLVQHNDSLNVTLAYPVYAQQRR
Sequence (P42336 whole entry): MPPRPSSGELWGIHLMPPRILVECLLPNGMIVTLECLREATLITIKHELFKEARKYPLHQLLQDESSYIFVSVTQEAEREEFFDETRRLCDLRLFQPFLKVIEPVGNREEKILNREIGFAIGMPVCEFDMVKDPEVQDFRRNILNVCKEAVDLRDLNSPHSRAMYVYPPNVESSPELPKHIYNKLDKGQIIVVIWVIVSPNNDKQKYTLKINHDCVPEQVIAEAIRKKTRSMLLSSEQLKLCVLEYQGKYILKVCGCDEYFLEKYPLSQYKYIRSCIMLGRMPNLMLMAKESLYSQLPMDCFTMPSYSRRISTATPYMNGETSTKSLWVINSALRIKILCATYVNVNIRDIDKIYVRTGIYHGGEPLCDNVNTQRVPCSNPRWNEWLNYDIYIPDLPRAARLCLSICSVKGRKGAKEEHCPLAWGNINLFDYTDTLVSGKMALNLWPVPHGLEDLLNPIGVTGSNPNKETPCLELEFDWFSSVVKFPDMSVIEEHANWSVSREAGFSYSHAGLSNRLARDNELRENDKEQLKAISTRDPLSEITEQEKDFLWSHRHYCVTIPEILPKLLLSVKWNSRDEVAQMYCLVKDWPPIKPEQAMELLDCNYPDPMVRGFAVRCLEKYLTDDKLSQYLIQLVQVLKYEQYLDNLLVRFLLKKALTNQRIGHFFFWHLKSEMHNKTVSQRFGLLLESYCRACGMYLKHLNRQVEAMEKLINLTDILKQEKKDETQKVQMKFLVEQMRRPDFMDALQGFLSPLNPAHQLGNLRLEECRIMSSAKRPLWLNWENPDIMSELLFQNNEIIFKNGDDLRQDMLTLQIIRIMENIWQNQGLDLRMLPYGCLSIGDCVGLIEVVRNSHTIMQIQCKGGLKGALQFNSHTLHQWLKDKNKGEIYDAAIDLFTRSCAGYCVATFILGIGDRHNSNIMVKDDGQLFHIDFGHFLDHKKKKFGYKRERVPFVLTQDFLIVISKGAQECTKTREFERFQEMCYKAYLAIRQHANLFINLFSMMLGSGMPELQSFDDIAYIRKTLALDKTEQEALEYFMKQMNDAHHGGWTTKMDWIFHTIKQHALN
Assay: Inhibition of recombinant human N-terminal His6-tagged full length P110alpha/full length untagged human p85alpha expressed in baculovirus infected Sf21 insect cells using PIP2 as substrate preincubated for 15 mins followed by substrate addition and measured after 60 mins by HTRF assay
In simple prose, pIC50 is minus the logarithm base ten of a concentration in moles per litre.

smiles_code	experimental_target	pIC50
COc1ncc(C2=CCOCC2)cc1S(=O)(=O)Nc1cncc(-c2ccc(CN3C[C@@H](C)O[C@@H](C)C3)cc2)c1	PI3-kinase p110-alpha/p85-alpha (Homo sapiens, UniProt P42336)	6.00
COc1ncc(C2=CCOCC2)cc1S(=O)(=O)Nc1cncc(-c2ccc(CN(C)C)cc2)c1	PI3-kinase p110-alpha/p85-alpha (Homo sapiens, UniProt P42336)	5.30
COc1ncc(C2=CCOCC2)cc1S(=O)(=O)Nc1cncc(-c2ccc(CN3C[C@@H](C)N(C)[C@@H](C)C3)cc2)c1	PI3-kinase p110-alpha/p85-alpha (Homo sapiens, UniProt P42336)	6.50
COc1ncc(C2=CCOCC2)cc1S(=O)(=O)Nc1cncc(C#CCN2CCN(C(C)C)CC2)c1	PI3-kinase p110-alpha/p85-alpha (Homo sapiens, UniProt P42336)	5.30
COc1ncc(C2=CCOCC2)cc1S(=O)(=O)Nc1cncc(-c2ccc(CN3CCCC3)cc2)c1	PI3-kinase p110-alpha/p85-alpha (Homo sapiens, UniProt P42336)	5.30

Task: Look at this compound and give its reported pIC50. COc1ncc(N2CCOCC2)cc1S(=O)(=O)Nc1cncc(-c2ccc(CN3CCN(C(C)C)CC3)cc2)c1
Output: 5.90

Task: Let us now turn to COc1ncc(C2=CCOCC2)cc1S(=O)(=O)Nc1cncc(C2=CCN(C)CC2)c1
Output: 4.70

Task: Another compound to check: COc1ncc(N2CCOCC2)cc1S(=O)(=O)Nc1ccnc(-c2ccc(CN3CCC(C(C)(C)O)CC3)cc2F)c1
Output: 5.60

Task: COc1ncc(N2CCOCC2)cc1S(=O)(=O)Nc1ccnc(-c2ccc(CN3CCN(C(C)C)CC3)cc2F)c1 ?
Output: 6.00

Source listed as ChEMBL document CHEMBL4825755.
